Cited source: PubChem BioAssay (NCI)

A collection of compounds and their measured growth
test system: 786-0 renal; assay: NCI-60 one-dose screen, 48 h (100 = growth as untreated, 0 = no growth, -100 = all killed); conditions: 10 µM
About 83,000 compounds went through this panel and 20% of them were active in at least one assay; those are over-represented in the sample as a whole.
Number only, in %; omit the unit.

// solved cases for growth follow
compound	growth [%]
COc1ccccc1CNCCCN1C(=O)c2ccc3c4c(ccc(c24)C1=O)C(=O)N(CCCN)C3=O	4.32
O=C1/C(=C\c2ccc(F)cc2)CN(C(=O)c2ccccc2)C/C1=C\c1ccc(F)cc1	33.6
CC(C)(C)c1ccc(N2CSC(=S)N(c3ccc(C(C)(C)C)cc3)C2)cc1	103
CCCCCCCCCCCCCCCCCCOCC(COCCOCC[N+]1(CCCCCC(=O)[O-])CCCC1)Oc1ncccn1 (stereo not given)	52.8
COc1ccc(-c2nn(-c3cccc(NC(=O)c4cccc(C(F)(F)F)c4)c3)cc2-c2ccncc2)cc1Cl	17.1
COc1ccc2nc3ccccc3c(NCCNCC(C)O)c2c1 (stereo not given)	0.024
CC1(C)OC2=C(CC1Br)C(=O)C(=O)c1ccccc12 (stereo not given)	-40.4
NC1=NC(=O)C(c2ccccc2)(c2ccccc2)S1	102

Inquiry: Reported growth for N#CSCC1CC(O)(c2ccccc2)CC(c2ccc(Cl)cc2)O1 (stereo not given) : what is it?
Reply text: 37

Inquiry: May I ask what growth has been recorded for Clc1ccc(Nc2ccnc(NCCNc3ccnc4cc(Cl)ccc34)n2)cc1 ?
Reply text: -62
